system-tested: Histamine H3 receptor (Rattus norvegicus)
Sequence (Q9QYN8 whole entry): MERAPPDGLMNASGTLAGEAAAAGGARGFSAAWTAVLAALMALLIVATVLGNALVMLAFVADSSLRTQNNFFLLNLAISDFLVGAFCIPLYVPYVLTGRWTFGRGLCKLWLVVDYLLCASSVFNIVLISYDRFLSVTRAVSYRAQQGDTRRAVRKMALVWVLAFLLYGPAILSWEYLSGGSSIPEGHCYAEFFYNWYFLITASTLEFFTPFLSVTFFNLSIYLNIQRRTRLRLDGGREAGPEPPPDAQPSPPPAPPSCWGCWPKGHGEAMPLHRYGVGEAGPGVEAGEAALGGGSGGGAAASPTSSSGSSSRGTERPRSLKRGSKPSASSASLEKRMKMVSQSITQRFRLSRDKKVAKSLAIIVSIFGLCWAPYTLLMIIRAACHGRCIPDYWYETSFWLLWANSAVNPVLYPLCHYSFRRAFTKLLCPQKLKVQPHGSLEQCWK
endpoint-name: Ki (nM)

OCCOc1ccc2c(c1)CCC1(CCN(C3CCC3)CC1)O2	368
CS(=O)(=O)CCCOc1ccc2c(c1)CCC1(CCN(C3CCC3)CC1)O2	41
c1cc2c(cc1O[C@@H]1CCOC1)CCC1(CCN(C3CCC3)CC1)O2	119
COCCOc1ccc2c(c1)CCC1(CCN(C3CCC3)CC1)O2	91
c1cc2c(cc1OCC1CCOC1)CCC1(CCN(C3CCC3)CC1)O2 (stereo not given)	49

[I] O=S1(=O)CCC(COc2ccc3c(c2)CCC2(CCN(C4CCC4)CC2)O3)CC1
[II] c1cc2c(cc1OC1CCSCC1)CCC1(CCN(C3CCC3)CC1)O2
Query string: Exercise: compare I and II ; which one has the greater Ki? Return value: the label identifying the chosen record.
Result string: II
(II: 62 nM, I: 9 nM)

[A] CSCCCOc1ccc2c(c1)CCC1(CCN(C3CCC3)CC1)O2
[B] c1cc2c(cc1O[C@H]1CCOC1)CCC1(CCN(C3CCC3)CC1)O2
Query string: Of A and B , whose reported Ki is the larger number? Reply with the label of the item you choose.
Result string: A
(A: 64 nM, B: 39 nM)

----------
method-description: Ratio drug uptake in brain to plasma of rat at 5 mg/kg, po measured after 6 hrs
Assay type: ADME, organism-based
Parameters: dose 5 mg/kg, route oral
measurement-parameters: read-out: BPR
endpoint-name: Kp at 6 h

O=S1(=O)CCC(Oc2ccc3c(c2)CCC2(CCN(C4CCC4)CC2)O3)CC1	1
O=S1(=O)CCC(COc2ccc3c(c2)CCC2(CCN(C4CCC4)CC2)O3)CC1	0.73
CS(=O)(=O)CCCOc1ccc2c(c1)CCC1(CCN(C3CCC3)CC1)O2	0.73

----------
system-tested: UniProtKB P11712
Sequence (P11712 whole entry): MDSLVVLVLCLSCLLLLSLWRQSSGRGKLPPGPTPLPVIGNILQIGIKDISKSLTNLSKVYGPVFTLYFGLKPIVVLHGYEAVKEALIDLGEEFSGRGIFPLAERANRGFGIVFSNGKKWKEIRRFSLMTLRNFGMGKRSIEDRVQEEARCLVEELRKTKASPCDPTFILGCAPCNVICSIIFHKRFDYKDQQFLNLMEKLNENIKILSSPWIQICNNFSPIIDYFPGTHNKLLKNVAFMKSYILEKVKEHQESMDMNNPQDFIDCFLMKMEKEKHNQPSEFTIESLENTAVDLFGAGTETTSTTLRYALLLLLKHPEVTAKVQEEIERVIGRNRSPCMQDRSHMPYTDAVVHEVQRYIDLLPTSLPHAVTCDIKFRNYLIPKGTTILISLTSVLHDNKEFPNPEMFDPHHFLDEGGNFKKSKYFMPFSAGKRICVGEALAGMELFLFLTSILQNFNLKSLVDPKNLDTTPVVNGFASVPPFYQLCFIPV
endpoint-name: IC50

Query string: Give IC50 for this entry on UniProtKB P11712: CS(=O)(=O)CCCOc1ccc2c(c1)CCC1(CCN(C3CCC3)CC1)O2
Result string: > 30 µM

----------
method-description: Volume of distribution in rat at 1 mg/kg, iv
Assay type: ADME, organism-based
Set-up: dose 1 mg/kg, route intravenous
measurement-parameters: in vivo
endpoint-name: Vd (L/kg)

O=S1(=O)CCC(Oc2ccc3c(c2)CCC2(CCN(C4CCC4)CC2)O3)CC1	2.8

[a] O=S1(=O)CCC(COc2ccc3c(c2)CCC2(CCN(C4CCC4)CC2)O3)CC1
[b] CS(=O)(=O)CCCOc1ccc2c(c1)CCC1(CCN(C3CCC3)CC1)O2
Query string: For the pair a and b , which entry has the numerically smaller recorded Vd? Answer by quoting the chosen item's label.
Result string: b

----------
method-description: Half life in mouse liver microsomes
Assay type: ADME, Microsome
endpoint-name: half-life

Worked cases, answers included:
O=S1(=O)CCC(Oc2ccc3c(c2)CCC2(CCN(C4CCC4)CC2)O3)CC1	> 40 min
O=S1(=O)CCC(COc2ccc3c(c2)CCC2(CCN(C4CCC4)CC2)O3)CC1	> 40 min

Now, please, on to the next molecule.
Query string: Using the record for CS(=O)(=O)CCCOc1ccc2c(c1)CCC1(CCN(C3CCC3)CC1)O2 , state its measured half-life.
Result string: > 40 min

----------
method-description: Plasma protein binding in rat
Assay type: ADME, cell-free
measurement-parameters: read-out: PPB (converted)
endpoint-name: fraction unbound
// return a plain number; no unit text

Query string: Input O=S1(=O)CCC(Oc2ccc3c(c2)CCC2(CCN(C4CCC4)CC2)O3)CC1 , output reported fraction unbound.
Result string: 0.27

This collection of values is drawn from ChEMBL document CHEMBL1933032.
